Origin of the recorded values: patent US20230159580A1

Target: Z-AAT (Homo sapiens, UniProt P01009, E366K)
Sequence (P01009 25-418 E366K): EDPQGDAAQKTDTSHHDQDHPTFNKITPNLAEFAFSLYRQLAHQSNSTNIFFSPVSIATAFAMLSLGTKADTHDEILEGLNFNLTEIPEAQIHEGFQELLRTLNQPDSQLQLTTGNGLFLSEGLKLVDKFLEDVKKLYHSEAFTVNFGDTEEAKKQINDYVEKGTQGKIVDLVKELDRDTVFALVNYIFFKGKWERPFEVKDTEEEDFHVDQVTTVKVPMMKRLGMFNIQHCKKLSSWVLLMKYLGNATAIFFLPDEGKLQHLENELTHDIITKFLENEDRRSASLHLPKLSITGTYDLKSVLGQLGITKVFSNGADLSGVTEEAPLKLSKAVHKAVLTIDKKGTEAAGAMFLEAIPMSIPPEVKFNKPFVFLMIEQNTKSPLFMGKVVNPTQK
Assay: Biochemical Assay (Z-AAT Elastase Activity Assay)
Settings: purified Z-AAT protein from human plasma and purified human neutrophil elastase; 1 hour pre-incubation with compound
pIC50: −log10 of the molar value.
The reader will find reported pIC50 values listed item by item below.

**Query** # query: pIC50 of entry "CC(C)c1c(CC(C)(C)C(=O)O)c2cc3[nH]ncc3cc2n1-c1ccc(F)cc1"
**Result** < 4.52

**Query** # query: pIC50 of entry COc1cc(-n2c(C3CCCOC3)c([C@H]3C[C@](C)(C(=O)O)C3)c3cc4[nH]ncc4cc32)ccc1F (stereo partly shown)
**Result** < 4.52

**Query** # query: pIC50 of entry CC(C)c1c(C2CCC(O)(C(N)=O)CC2)c2cc3[nH]ncc3cc2n1-c1ccc(F)c(F)c1 (stereo not shown)
**Result** < 4.52

**Query** # query: pIC50 of entry COc1cc(-n2c(C3CCCOC3)c([C@H]3C[C@H](C(=O)O)C3)c3cc4[nH]ncc4cc32)ccc1F (stereo partly shown)
**Result** < 5.52

**Query** # query: pIC50 of entry "O=C(O)[C@H]1CC[C@@H](c2c(C3CCOCC3)n(-c3ccc(F)c(F)c3)c3cc4cn[nH]c4cc32)CC1"
**Result** < 4.52

**Query** # query: pIC50 of entry "COc1cc(-n2c(C(C)C)c([C@H]3CC[C@@H](C(=O)O)CC3)c3cc4[nH]ncc4cc32)ccc1F"
**Result** < 5.52

**Query** # query: pIC50 of entry "COc1cc(-n2c(C(C)C)c([C@H]3CC[C@H](C(=O)O)CC3)c3cc4[nH]ncc4cc32)ccc1F"
**Result** < 4.52

**Query** # query: pIC50 of entry "CC(C)c1c([C@H]2CC[C@H](C(=O)O)CC2)c2nc3[nH]ncc3cc2n1-c1ccc(F)c(F)c1"
**Result** < 4.52

**Query** # query: pIC50 of entry CC(C)c1c(C2COC(C(=O)O)C2)c2cc3[nH]ncc3cc2n1-c1ccc(F)c(F)c1 (stereo not shown)
**Result** < 4.52

**Query** # query: pIC50 of entry "CC(C)c1c([C@H]2CC[C@H](C(=O)O)CC2)c2nc3[nH]ncc3cc2n1-c1ccc(F)c(OC(F)F)c1"
**Result** < 5.52

***
**Query** # query: pIC50 of entry "COc1cc(-n2c(C3CCOCC3)c([C@H]3CC[C@H](C(=O)O)CC3)c3cc4[nH]ncc4cc32)ccc1F"
**Result** < 4.52

**Query** # query: pIC50 of entry "COc1cc(-n2c(C(C)(C)CC#N)c([C@H]3CC[C@@H](C(=O)O)CC3)c3cc4[nH]ncc4cc32)ccn1"
**Result** < 4.52

**Query** # query: pIC50 of entry COc1cc(-n2c(C3CCCOC3)c([C@H]3C[C@@](C)(C(=O)O)C3)c3cc4[nH]ncc4cc32)ccc1F (stereo partly shown)
**Result** < 4.52

**Query** # query: pIC50 of entry "COCC(C)(C)c1c([C@H]2CC[C@H](C(=O)O)CC2)c2nc3[nH]ncc3cc2n1-c1ccc(F)c(F)c1"
**Result** < 5.52
